# assay target: T1, hen egg-white lysozyme (hen, UniProt P00698 19-147)
# T1 construct: also called HEL
# T1 sequence (P00698 19-147): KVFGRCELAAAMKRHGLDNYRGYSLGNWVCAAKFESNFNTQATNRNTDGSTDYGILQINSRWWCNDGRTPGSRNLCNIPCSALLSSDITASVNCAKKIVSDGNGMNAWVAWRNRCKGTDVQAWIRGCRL
# experiment notes: Biacore, HEL immobilised; Kd'' dissociation constant at steady state
parameter: Kd (nM)

• H4S cysteine mutant A26C (not conjugated) (designed binder, Free cysteine mutant, measured in reducing conditions) MRGSHHHHHHGSVKVKFFWNGEEKEVDTSKIVWVKRCGKSVLFIYDDNGKNGYGDVTEKDAPKELLDMLARAEREKKLN = 54

P = H4S cysteine mutant W8C (not conjugated) (designed binder, Free cysteine mutant, measured in reducing conditions) MRGSHHHHHHGSVKVKFFCNGEEKEVDTSKIVWVKRAGKSVLFIYDDNGKNGYGDVTEKDAPKELLDMLARAEREKKLN
Q = H4S cysteine mutant K39C (not conjugated) (designed binder, Free cysteine mutant, measured in reducing conditions) MRGSHHHHHHGSVKVKFFWNGEEKEVDTSKIVWVKRAGKSVLFIYDDNGCNGYGDVTEKDAPKELLDMLARAEREKKLN
[in] Which record shows the lower Kd: the first, P , or the second, Q ? Identify your selection by its label.
[out] Q
(Q: 24 nM, P: 66 nM)
